assay: isobaric coefficient of expansion; conditions: 338.15 K; 35000 kPa; Liquid; Microcalorimeter
The compounds listed here are annotated with their isobaric coefficient of expansion.
property.label: isobaric coefficient of expansion

                                   compound  endpoint_result
0  CCn1cc[n+](C)c1.F[B-](F)(F)F [1-ethyl-3-methylimidazolium tetrafluoroborate]      0.00054 1/K
1  CCn1cc[n+](C)c1.O=S(=O)([N-]S(=O)(=O)C(F)(F)F)C(F)(F)F     0.000588 1/K
2  CCCCCC[n+]1ccn(C)c1.O=S(=O)([N-]S(=O)(=O)C(F)(F)F)C(F)(F)F     0.000588 1/K
3  CCCCCCCC[n+]1ccn(C)c1.F[B-](F)(F)F [1-methyl-3-octylimidazolium tetrafluoroborate]     0.000544 1/K
4  CCCC[n+]1cccc(C)c1.F[B-](F)(F)F [1-butyl-3-methylpyridinium tetrafluoroborate]     0.000539 1/K
5  CCCCCCn1cc[n+](C)c1.F[B-](F)(F)F [1-hexyl-3-methylimidazolium tetrafluoroborate]     0.000544 1/K
